Target: GLP-1 receptor
Assay: cell-based or functional assay
Numbered stars: 1 amine (or outer) side, 2 acyl side, 3 side chain; on linkers, the order of the positions; unused ones are H or OH. Square brackets hold non-standard residues; d marks the D form. Primed or numbered codes have the meaning given here. Side chains are listed from the residue outwards. Ends that are not written are not given here. * marks the point of attachment. 40K‑TE PEG = 40 kDa PEG covalently bound via thioether, formed by reaction of the free thiol of the peptide (Cys side chain) with an iodoacetic-functionalized PEG; 40K‑TE PEG(3) = 40 kDa PEG bound to the Cys thiol via a thioether, made by reacting the free-thiol peptide with iodoacetic-functionalised PEG; 40K‑TE PEG″ = 40 kDa PEG bound to Cys via thioether made from an iodoacetyl-functionalised PEG; 12K‑ME PEG = 12 kDa PEG bound via maleimido-thioether; γGlu = O=C(O)[C@H](CCC(=O)[*:2])N[*:1]; Desaminohistidyl = O=C(CCc1c[nH]cn1)*; Palmitoyl = CCCCCCCCCCCCCCCC(=O)*; Aib = CC(C)(N)C(=O)O
Please assign a class to every record based on measured EC50 (nM) at GLP-1 receptor, with ranges LOW = under 0.03 nM, MID = from 0.03 nM up to 0.1 nM, HIGH = 0.1 nM and over

Before answering, review these 8 worked examples.
> print(dat)
                                     binder  answer.label
1  H[Aib]QGTFTSDYSKYLDERRA[Aib]EFVC(40K‑TE PEG″)WLLDT-NH2 [peptide of SEQ ID NO: 14]           MID
2  H[dS]QGTFTSDK([γGlu-Palmitoyl])SKYLDERAAQDFVQWLLKGRG-NH2 [peptide of SEQ ID NO: 27]           LOW
3  H[dS]QGTFTSDK([γGlu-Palmitoyl])SKYLDEQAAKEFIC(12K‑ME PEG)WLLDT-NH2 [peptide of SEQ ID NO: 43]           LOW
4  HXQGTFTSDKSKYLDERAAQDFVQWLMDT (aib at 2; Lys 10 with γEγEC16; C-terminal amide) [peptide of SEQ ID NO: 61]           LOW
5  H[Aib]QGTFTSDYSKYLDEKRA[Aib]EFVC(40K‑TE PEG″)WLLDE-NH2 [peptide of SEQ ID NO: 16]          HIGH
6  H[Aib]QGTFTSDYSKYLDEKRA[Aib]DFVC(40K‑TE PEG(3))WLLDT-NH2 [peptide of SEQ ID NO: 54]           MID
7  H[Aib]QGTFTSDYSKYLDEKRA[Aib]EFVC(40K‑TE PEG)WLLDT-OH [peptide of SEQ ID NO: 45]          HIGH
8  H[Aib]QGTFTSDYSKYLDEKRA[Aib]EFVC(40K‑TE PEG)WLLDT-NH2 [peptide of SEQ ID NO: 13]           MID

Bin this entry: H[Aib]QGTFTSDYSKYLD[Aib]KRAKEFVQWLLDTC(40K‑TE PEG″)-NH2 [peptide of SEQ ID NO: 40]
HIGH

Bin this entry: H[Aib]QGTFTSDYSKYLDEKRA[Aib]EFVC(40K‑TE PEG)WLMDT-NH2 [peptide of SEQ ID NO: 15]
MID

Bin this entry: H[Aib]QGTFTSDYSKYLD[Aib]KRAKEFVQWLLC(40K‑TE PEG)T-OH [peptide of SEQ ID NO: 39]
HIGH

Bin this entry: H[Aib]QGTFTSDK([γGlu-Palmitoyl])SKYLD[Aib]RAAQDFVQWLMKTK[dE]-OH [peptide of SEQ ID NO: 60]
MID

Bin this entry: [Desaminohistidyl][dS]QGTFTSDK([γGlu-Palmitoyl])SKYLDERAAQDFVQWLLDT-NH2 [peptide of SEQ ID NO: 20]
LOW
